Experiment: Drug repurposing screens with cells derived from glioblastoma tumor samples (AID 1345199); note: % is set by controls: 0 for no effect and ±100 for the full control effect
Settings: GBM patient neurospheres viability, ATP luminescence, 48 h; at 21.2 µM (top of the series); tumour line B
Results filed as inconclusive are left out.
Would you mind telling me the reported activity, negative = cell killing of each entry?
Answer format: numeric, % implied, no suffix.

So what does the record say about activity, negative = cell killing for "CN1CCC(OC(c2ccccc2)c2ccccc2)CC1" ? -9.68

Here is the next molecule: NS(=O)(=O)c1cc2c(cc1Cl)NC(CC1CCCC1)NS2(=O)=O (centres undefined) -9.27

Please give the result for "O=C(O)CCC(=O)Nc1ccc(S(=O)(=O)Nc2nccs2)cc1" too. 2.8

Follow-up item: CC(C)(C)NCC(O)COc1cccc2c1C[C@H](O)[C@H](O)C2 (some centres undefined) -2.25

Consider next the molecule "COc1ccc(C(=O)c2ccccc2O)c(O)c1" in the same way. 4.62

# iterate: CCC(Cc1c(I)cc(I)c(N)c1I)C(=O)O (centres undefined) 4.87

Would you kindly repeat that for "CCCc1ncc(C[n+]2ccccc2C)c(N)n1" ? -1.46

Another molecule to look at: CC(CNC1CCCCC1)OC(=O)c1ccccc1 (centres undefined) -8.26

Lookup O=C1C(CCS(=O)c2ccccc2)C(=O)N(c2ccccc2)N1c1ccccc1 (centres undefined) 2.69

These measurements were taken from PubChem BioAssay (NCATS).
